B1: SNAP91 (parent)
chain: FATASAAVPVSTSKPSSDLLDLQP

variants of: B1; assay: protein stability index of a GFP-peptide fusion (GPS, HEK-293T) (PSI 1-6); higher = more stable; details: c terminus: a fixed tail appended;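 also: lentivirally expressed fusions sorted by FACS into six bins by GFP to DsRed ratio, PSI derived from sequencing read proportions per bin multiplied by bin number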
Each entry below carries its recorded protein stability index.
MEASURED_ENDPOINT: protein stability index

>>> reported_value("FATASAAVPVSTSKPSSDQLDLQP")
3.96
>>> reported_value("FATASAAVPVSTSKPSSDLLDLNP")
4.08
>>> reported_value("FATVSAAVPVSTSKPSSDLLDLQP")
3.9
>>> reported_value("FATASAFVPVSTSKPSSDLLDLQP")
3.89
